biological target: iNOS (Homo sapiens); assay: NOS activity: L-[3H]citrulline formation from L-[3H]arginine, iNOS; assay type: biochemical; settings: Table 2; iNOS; 1 μM L-Arg, pH 7.5, room temperature, 30 minutes; read-out: iNOS (IC50)
pIC50: −log10 of the molar value. Where a name gives a salt, the structure may show the parent alone.
Experimental readout: pIC50

These solved cases illustrate the format of a correct answer.
| Compound | Value reported |
| --- | --- |
| CCc1ccc(N)nc1 | > 5.00 |
| Cc1cc(N)nc(CCCc2ccccc2)c1 | > 4.30 |
| COCc1c(C)ccnc1N [Example 25, dihydrochloride] | > 5.00 |
| Cc1ccnc(N)c1N(C)C [Example 27, trihydrochloride] | > 4.30 |
| Cc1cc(N)nc(CCN)c1 | > 6.00 |

// for each compound below, give its pIC50
1. Cc1cc(N)nc(CCC(N)C(=O)O)c1 (stereo not shown) [Example 59, dihydrochloride]
2. C=CCCc1cc(C)cc(N)n1
3. CSc1c(C)ccnc1N
4. Cc1cc(N)nc(CC[C@H](C)N)c1
5. C#Cc1cnc(N)cc1C

1. > 6.00
2. > 6.00
3. > 4.30
4. > 6.00
5. > 5.00
